assay: in vitro; settings: mouse, microsomes

Compound | half-life at 1 μM / min
O=C(O)Cc1ccccc1Nc1c(Cl)cccc1Cl [Diclofenac, reference compound] | 40

====

test: Plasma stability assay; format: in vitro ADME; conditions: male, SD, pH 7.4; rat plasma, 37 °C, time point 10 min
Value kind: remaining at 10 min (%)

Compound | Readout units | Measurement
O=c1ccc2ccc(OCc3cn([C@@H]4O[C@H](CO)[C@@H](O)[C@H](O)[C@H]4O)nn3)cc2o1 [Compound 10a] | % | 115

====

test: Plasma stability assay; format: in vitro ADME; settings: male, SD, pH 7.4; rat plasma, 37 °C, time point 60 min

Compound | remaining at 1 h
O=c1ccc2ccc(OCc3cn([C@@H]4O[C@H](CO)[C@@H](O)[C@H](O)[C@H]4O)nn3)cc2o1 [Compound 10a] | 86%
